- run_description: Drug metabolism in dog microsomes assessed as drug turnover at 20 uM measured after 30 mins by LCMS analysis
- Format: ADME, Canis lupus familiaris, Microsome
- measurement_setup: read-out: Drug metabolism
reported_endpoint: metabolised at 0.5 h, 20 µM (%)
Give the value, in units of %, as a plain number.

In: Give reported metabolised at 0.5 h, 20 µM value for Cc1ncn(C)c1NC(=O)[C@H]1CCC[C@@H](N(C)C(=O)c2cccc(OC(F)(F)F)c2)C1
Out: 40

In: Fill in metabolised at 0.5 h, 20 µM for record Cc1ncc(-c2nnc([C@H]3CCC[C@@H](N(C)C(=O)c4cccc(C(F)(F)F)c4)C3)[nH]2)n1C
Out: 22

In: Consider the molecule Cc1ncn(C)c1-c1nnc([C@H]2CCC[C@@H](N(C)C(=O)c3cccc(Cl)c3)C2)[nH]1 . State its measured metabolised at 0.5 h, 20 µM.
Out: 33

In: Read off the recorded metabolised at 0.5 h, 20 µM for CN(C(=O)c1cccc(C(F)(F)F)c1)[C@@H]1CCO[C@H](c2nnc(-c3cnc4n3CCOC4)[nH]2)C1
Out: 17

In: Please look at this molecule and report its metabolised at 0.5 h, 20 µM: Cc1ncn(C(C)C)c1NC(=O)[C@H]1CCC[C@@H](N(C)C(=O)c2cccc(C(F)(F)F)c2)C1
Out: 33

In: Identify measured metabolised at 0.5 h, 20 µM corresponding to Cc1ncn(C)c1-c1nnc([C@@H]2C[C@H](N(C)C(=O)c3cccc(C(F)(F)F)c3)CCO2)[nH]1
Out: 13

In: Name the recorded metabolised at 0.5 h, 20 µM of the molecule listed here: CN(C(=O)c1cccc(C(F)(F)F)c1)[C@@H]1CCO[C@H](c2nnc(-c3cnc4n3CCC4)[nH]2)C1
Out: 7

In: Specify reported metabolised at 0.5 h, 20 µM for the molecule shown: Cc1ncn(C)c1-c1nnc([C@H]2CCC[C@@H](N(C)C(=O)c3cccc(C(F)(F)F)c3)C2)[nH]1
Out: 46

In: Determine its reported metabolised at 0.5 h, 20 µM: Cc1ncn(C)c1-c1nnc([C@@H]2C[C@H](N(C)C(=O)c3cccc(Cl)c3)CCO2)[nH]1
Out: 16

In: Please supply the value of reported metabolised at 0.5 h, 20 µM for the item Cc1ncn(C2CCC2)c1-c1nnc([C@@H]2C[C@H](N(C)C(=O)c3cccc(C(F)(F)F)c3)CCO2)[nH]1
Out: 48

In: Quickly give me recorded metabolised at 0.5 h, 20 µM for Cc1ncn(C)c1-c1nnc([C@@H]2C[C@H](N(C)C(=O)c3cccc(OC(F)(F)F)c3)CCO2)[nH]1
Out: 16

In: Quickly give me recorded metabolised at 0.5 h, 20 µM for Cc1ncn(CC(F)F)c1NC(=O)[C@H]1CCC[C@@H](N(C)C(=O)c2cccc(Cl)c2)C1
Out: 19

In: // fetch metabolised at 0.5 h, 20 µM given entry Cc1ncn(C)c1NC(=O)[C@H]1CCC[C@@H](N(C)C(=O)c2cccc(C(F)(F)F)c2)C1
Out: 28

In: Give reported metabolised at 0.5 h, 20 µM value for Cc1ncn(CC2CC2)c1-c1nnc([C@@H]2C[C@H](N(C)C(=O)c3cccc(C(F)(F)F)c3)CCO2)[nH]1
Out: 63

In: Supply measured metabolised at 0.5 h, 20 µM of Cc1ncn(CC2CC2)c1NC(=O)[C@H]1CCC[C@@H](N(C)C(=O)c2cccc(C(F)(F)F)c2)C1 in your reply.
Out: 66

In: Provide measured metabolised at 0.5 h, 20 µM value, entry: Cc1ncn(CC(F)(F)F)c1NC(=O)[C@H]1CCC[C@@H](N(C)C(=O)c2cccc(C(F)(F)F)c2)C1
Out: 38

In: Look up and state reported metabolised at 0.5 h, 20 µM for Cc1ncn(CC2CN(C)C2)c1NC(=O)[C@H]1CCC[C@@H](N(C)C(=O)c2cccc(C(F)(F)F)c2)C1
Out: 24

In: Please supply the value of reported metabolised at 0.5 h, 20 µM for the item Cc1ncn(CC#N)c1NC(=O)[C@H]1CCC[C@@H](N(C)C(=O)c2cccc(C(F)(F)F)c2)C1
Out: 6

In: Complete the entry with metabolised at 0.5 h, 20 µM for Cc1ncn(CC(F)F)c1-c1nnc([C@H]2CCC[C@@H](N(C)C(=O)c3cccc(C(F)(F)F)c3)C2)[nH]1
Out: 83

In: Identify the reported metabolised at 0.5 h, 20 µM for the following entry. Cc1ncn(CCN2CCOCC2)c1NC(=O)[C@H]1CCC[C@@H](N(C)C(=O)c2cccc(C(F)(F)F)c2)C1
Out: 19

In: Input Cc1ncn(CC(F)(F)F)c1NC(=O)[C@H]1CCC[C@@H](N(C)C(=O)c2cccc(OC(F)(F)F)c2)C1 , output reported metabolised at 0.5 h, 20 µM.
Out: 51

In: Give the measured metabolised at 0.5 h, 20 µM for CN(C(=O)c1cccc(Cl)c1)[C@@H]1CCO[C@H](c2nnc(-c3cnc4ccccn34)[nH]2)C1
Out: 46

In: Provide measured metabolised at 0.5 h, 20 µM value, entry: Cc1ncn(CC(F)F)c1NC(=O)[C@H]1CCC[C@@H](N(C)C(=O)c2cccc(C(F)(F)F)c2)C1
Out: 38

In: Using known records, supply metabolised at 0.5 h, 20 µM for Cc1nc[nH]c1-c1nnc([C@H]2CCC[C@@H](N(C)C(=O)c3cccc(C(F)(F)F)c3)C2)[nH]1
Out: 9

In: Using the record for CN(C(=O)c1cccc(C(F)(F)F)c1)[C@@H]1CCC[C@H](c2nnc(-c3cnc4n3CCOC4)[nH]2)C1 , state its measured metabolised at 0.5 h, 20 µM.
Out: 52

Hello, the source for this data is ChEMBL document CHEMBL4627259, in case you need it.
